Attribute: ka
# target.or.system: T1, human CD73 (SEQ ID NO: 70) (Homo sapiens, UniProt P21589)
# T1 construct: purchased BPS Bioscience
# T1 sequence (P21589 27-549): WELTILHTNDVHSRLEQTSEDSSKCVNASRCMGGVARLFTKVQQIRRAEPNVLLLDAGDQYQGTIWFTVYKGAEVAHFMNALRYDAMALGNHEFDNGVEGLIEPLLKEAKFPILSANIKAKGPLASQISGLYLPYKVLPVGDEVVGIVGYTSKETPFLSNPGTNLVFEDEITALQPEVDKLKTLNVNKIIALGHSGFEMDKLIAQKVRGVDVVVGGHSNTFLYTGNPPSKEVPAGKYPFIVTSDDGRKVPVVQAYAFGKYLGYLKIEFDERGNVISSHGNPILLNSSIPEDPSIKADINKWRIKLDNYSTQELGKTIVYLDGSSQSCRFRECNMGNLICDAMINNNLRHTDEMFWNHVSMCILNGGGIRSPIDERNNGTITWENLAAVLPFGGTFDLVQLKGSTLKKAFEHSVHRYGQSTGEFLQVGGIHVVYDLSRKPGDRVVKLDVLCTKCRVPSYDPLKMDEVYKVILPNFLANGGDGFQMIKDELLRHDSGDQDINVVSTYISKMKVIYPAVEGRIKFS
# assay: SPR (Biacore 8K) binding affinity and kinetics to human CD73
# condition.details: human CD73, open conformation, 25° C.

CL25_hu_11-5: humanized CL25 antibody, VH and VL in FIG. 1B (antibody, V domains shown) VH: QVQLVQSGAEVKKPGASVKVSCKASGYTFTSYGLSWVRQATGQGLEWMGEIYPGSGNTYYNEKFKGRVTMTANTSISTAYMELSSLRSEDTAVYYCARYDYLGSSYGFDYWGAGTTVTVSS VL: DIVMTQSPDSLAVSLGERATINCKASQDVSTAVAWYQQKPGQPPKLLIYSASYRYSGVPDRFSGSGSGTDFTLTISSLQAEDVAVYYCQQHYNTPYTFGGGTKLEIK
799000 M⁻¹ s⁻¹

Now consider a different molecule.
Exercise: What measured ka goes with CL25_hu_8-5: humanized CL25 antibody, VH and VL in FIG. 1B (antibody, V domains shown) VH: QVQLVQSGAEVKKPGASVKVSCKASGYTFTSYGLSWVRQATGQGLEWMGEIYPGSGNTYYNEKFKGRVTMTRNTSISTAYMELSSLRSEDTAVYYCARYDYLGSSYGFDYWGAGTTVTVSS VL: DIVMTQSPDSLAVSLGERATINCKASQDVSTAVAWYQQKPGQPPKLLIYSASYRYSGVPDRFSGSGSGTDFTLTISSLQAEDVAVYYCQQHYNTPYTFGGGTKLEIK ?
Solution: >1e+06 M⁻¹ s⁻¹
